test_system: 5-hydroxytryptamine receptor 7 (Homo sapiens, UniProt P34969)
Sequence (P34969 whole entry): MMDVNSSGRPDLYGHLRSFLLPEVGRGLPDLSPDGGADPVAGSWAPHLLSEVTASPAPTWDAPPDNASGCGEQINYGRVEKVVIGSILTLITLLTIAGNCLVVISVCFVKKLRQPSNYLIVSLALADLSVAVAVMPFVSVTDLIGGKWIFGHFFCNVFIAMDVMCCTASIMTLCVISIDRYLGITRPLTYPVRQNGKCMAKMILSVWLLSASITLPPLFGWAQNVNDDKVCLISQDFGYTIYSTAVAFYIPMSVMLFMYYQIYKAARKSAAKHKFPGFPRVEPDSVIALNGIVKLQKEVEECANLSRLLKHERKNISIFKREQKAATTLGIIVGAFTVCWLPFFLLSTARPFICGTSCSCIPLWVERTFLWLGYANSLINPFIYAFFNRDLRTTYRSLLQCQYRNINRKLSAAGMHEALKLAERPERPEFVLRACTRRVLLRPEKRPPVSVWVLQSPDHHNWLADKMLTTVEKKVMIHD
procedure_details: Displacement of [3H]-LSD from human recombinant 5-HT7 receptor expressed in stable HEK cells after 90 mins by microbeta scintillation counting method
Assay type: cell-based
condition_set: read-out: Ki
quantity: pKi
Scale for pKi: -log10 of concentration given in mol/L; no unit attached.

Please list pKi recorded for the molecule C[C@@]12CN(c3ccccc3)c3ccccc3[C@@H]1CCN2 (racemic)
8.20

---

test_system: Histamine H2 receptor (Homo sapiens, UniProt P25021)
Sequence (P25021 whole entry): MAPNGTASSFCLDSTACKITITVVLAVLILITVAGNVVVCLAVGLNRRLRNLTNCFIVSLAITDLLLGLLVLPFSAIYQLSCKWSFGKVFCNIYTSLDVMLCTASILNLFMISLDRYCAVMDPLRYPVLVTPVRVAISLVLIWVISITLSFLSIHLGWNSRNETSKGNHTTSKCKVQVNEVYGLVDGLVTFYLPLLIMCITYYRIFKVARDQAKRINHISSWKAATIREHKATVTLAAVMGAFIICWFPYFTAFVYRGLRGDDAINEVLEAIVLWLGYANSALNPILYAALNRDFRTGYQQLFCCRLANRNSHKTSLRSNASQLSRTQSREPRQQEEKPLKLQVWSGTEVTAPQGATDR
procedure_details: Displacement of [125I]-Iodoaminopotentidine from human recombinant histamine H2 receptor expressed in stable HEK cells after 90 mins by microbeta scintillation counting method
Entries annotated with measured Ki

Illustrative cases are given below, each with its answer.
CC[C@H]1c2cc(C)ccc2OC[C@@]1(C)N (racemic) | > 10 µM
CC[C@H]1c2cc(OC)ccc2CC[C@@]1(C)N (racemic) | > 10 µM
CC[C@H]1c2ccccc2N(c2ccccc2)C[C@@]1(C)N (racemic) | > 10 µM
C[C@@]12CN(c3ccccc3)c3ccccc3[C@@H]1CCN2 (racemic) | 2 µM

Proceed to the following item.
Using Histamine H2 receptor (Homo sapiens, UniProt P25021) as the test system, report measured Ki of COc1cc(OC)c2c(c1)OC[C@@]1(C)NCC[C@@H]21 (racemic) .
> 10 µM

---

test_system: Sigma non-opioid intracellular receptor 1 (Homo sapiens)
Sequence (Q99720 whole entry): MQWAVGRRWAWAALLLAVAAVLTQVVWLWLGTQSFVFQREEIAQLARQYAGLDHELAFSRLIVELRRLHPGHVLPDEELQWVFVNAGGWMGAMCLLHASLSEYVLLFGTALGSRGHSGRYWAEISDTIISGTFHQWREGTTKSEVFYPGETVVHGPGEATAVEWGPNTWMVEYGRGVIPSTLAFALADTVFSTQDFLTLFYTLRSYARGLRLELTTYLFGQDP
procedure_details: Displacement of [3H]-Pentazocine from human recombinant sigma1 receptor expressed in HEKT cells after 90 mins by microbeta scintillation counting method
Assay type: cell-based
condition_set: read-out: Ki
Entries annotated with measured Ki
The figure you give is taken to be in µM; do not add the unit.

COc1cc(OC)c2c(c1)OC[C@@]1(C)NCC[C@@H]21 (racemic) | 0.044

Proceed to the following item.
Please list Ki recorded for the molecule CC[C@H]1c2cc(-c3ccccc3)ccc2OC[C@@]1(C)N (racemic)
0.016

---

test_system: 5-hydroxytryptamine receptor 1A (Homo sapiens, UniProt P08908)
Sequence (P08908 whole entry): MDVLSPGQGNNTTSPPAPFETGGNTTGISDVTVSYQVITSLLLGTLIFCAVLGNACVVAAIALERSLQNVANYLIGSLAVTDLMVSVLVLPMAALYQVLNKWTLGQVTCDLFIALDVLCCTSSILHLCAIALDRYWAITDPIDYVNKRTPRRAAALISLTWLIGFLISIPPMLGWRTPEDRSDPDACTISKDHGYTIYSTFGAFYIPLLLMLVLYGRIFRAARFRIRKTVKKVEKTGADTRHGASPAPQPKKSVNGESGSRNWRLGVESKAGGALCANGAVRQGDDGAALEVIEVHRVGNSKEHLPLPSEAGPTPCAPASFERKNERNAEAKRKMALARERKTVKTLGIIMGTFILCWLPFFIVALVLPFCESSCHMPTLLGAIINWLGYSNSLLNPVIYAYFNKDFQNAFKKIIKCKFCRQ
procedure_details: Displacement of [3H]-Way100635 from human recombinant 5-HT1A expressed in stable CHO cells after 90 mins by microbeta scintillation counting method
Assay type: cell-based
condition_set: cho; read-out: Ki
quantity: Ki

Please list Ki recorded for the compound C[C@@]12CN(c3ccccc3)c3ccccc3[C@@H]1CCN2 (racemic)
> 10 µM

---

test_system: Alpha-1D adrenergic receptor (Homo sapiens, UniProt P25100)
Sequence (P25100 whole entry): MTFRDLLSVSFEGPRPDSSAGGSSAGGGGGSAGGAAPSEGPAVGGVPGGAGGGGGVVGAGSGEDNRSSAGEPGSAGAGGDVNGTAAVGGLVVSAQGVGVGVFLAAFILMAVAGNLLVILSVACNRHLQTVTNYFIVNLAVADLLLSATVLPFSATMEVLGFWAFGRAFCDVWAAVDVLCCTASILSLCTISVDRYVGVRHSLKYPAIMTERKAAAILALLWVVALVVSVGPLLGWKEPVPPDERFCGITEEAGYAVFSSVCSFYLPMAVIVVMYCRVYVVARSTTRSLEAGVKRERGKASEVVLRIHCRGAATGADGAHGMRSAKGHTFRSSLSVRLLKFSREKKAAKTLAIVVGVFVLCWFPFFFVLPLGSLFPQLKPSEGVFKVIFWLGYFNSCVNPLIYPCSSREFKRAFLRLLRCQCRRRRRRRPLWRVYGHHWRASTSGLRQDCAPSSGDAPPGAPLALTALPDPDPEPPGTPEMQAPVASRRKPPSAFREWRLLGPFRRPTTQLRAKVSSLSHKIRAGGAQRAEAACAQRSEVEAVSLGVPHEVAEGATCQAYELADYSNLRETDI
procedure_details: Displacement of [3H]-Prazosin from human recombinant adrenergic Alpha1D receptor expressed in cells after 90 mins by microbeta scintillation counting method
pKi: −log10 of the molar value.
quantity: pKi

Illustrative cases are given below, each with its answer.
C[C@@]12CN(c3ccccc3)c3ccccc3[C@@H]1CCN2 (racemic) | 6.00
COc1cc(OC)c2c(c1)OC[C@@]1(C)NCC[C@@H]21 (racemic) | < 5.00
CC[C@H]1c2cc(OC)ccc2CC[C@@]1(C)N (racemic) | < 5.00
CC[C@H]1c2ccccc2N(c2ccccc2)C[C@@]1(C)N (racemic) | < 5.00

Proceed to the following item.
Please list pKi recorded for the compound CC[C@H]1c2cc(C)ccc2OC[C@@]1(C)N (racemic)
< 5.00
